- Assay comment: Toxicity liver stage against HepG2, at 10uM
- Assay type: cell-based
- Parameters: test concentration 10 uM, cell line HepG2-A16-CD81EGFP
- Cond: human, HepG2-A16-CD81EGFP cells; read-out: INHIBITION
Attribute measured: cytotoxicity at 10 µM (%)
Numbers only, in %.

As a guide, the following entries are already answered.
Molecule | cytotoxicity at 10 µM [%]
Cc1nc(C)n(CC2CN(CCC(=O)N3CCCCC3)CCO2)n1 (stereo not drawn) | -4.64
CCC(CO)N(Cc1ccsc1)Cc1ccccc1C(=O)O (stereo not drawn) | -14.4
COc1cc(N2CCCC(c3nccn3CCN(C)C)C2)nc(N)n1 (stereo not drawn) | -9.6

State the recorded cytotoxicity at 10 µM for every item in the following list.
1. Cc1nonc1CN(C)Cc1cnn(-c2ccc(Cl)cc2)c1
2. O=C(NCC1CC1)C1CCC2(CCN(C(=O)c3ccco3)CC2)O1 (stereo not drawn)
3. COCC1CN(Cc2cccc(C#N)c2)Cc2nccn2C1 (stereo not drawn)
4. NC(=O)C1CCCN1c1cc(N2CCc3ccccc3C2)ncn1 (stereo not drawn)
5. COCCN1CCC2(CC1)CC(NC(=O)C(C)C)c1ccccc1O2 (stereo not drawn)

1. -16.3
2. 5.91
3. -141
4. -0.918
5. 3.82

I'm hoping you can list cytotoxicity at 10 µM for every molecule here, please.
1. Cc1nc(N2CCOCC2)ncc1-c1cc(O)nc(N2CCCC2)n1
2. Cc1noc(C)c1CN1CCCC2(CCN(C(=O)NC3CC3)C2)C1 (stereo not drawn)
3. COc1cc(CNc2ccc(Cl)cc2)ccc1OCC(=O)O
4. COCCN1C(=O)[C@@H]2CC[C@H]1CN(c1nccc(C3CCCC3)n1)C2
5. Cn1ncc2c(N3CCN4CCCCC4C3)nc(C3CCCC3)nc21 (stereo not drawn)

7.63
7.25
3.63
7.67
-139

I would be grateful if you could provide cytotoxicity at 10 µM for each of the following entries.
1. Cc1nc(Nc2nnc(C)s2)cc(C2CCCN2C(C)C)n1 (stereo not drawn)
2. CCc1c(C)nn(CCNC(=O)c2cnn[nH]2)c1C
3. Cc1ccc(NC2CCN(C(=O)c3cccc(F)c3F)CC2)nn1
4. O=C(NCC1CCSCC1)N(CCCO)C1CCc2ccccc21 (stereo not drawn)
5. O=C(NCc1nncn1C1CC1)c1ccccc1OCC1CC1
6. CN(C)C(=O)NC1COC2(CCN(C(=O)c3ccc(Cl)cc3)CC2)C1 (stereo not drawn)
7. Cc1cscc1C(=O)Nc1cc(CSCCO)ccn1
8. CCn1cc(CN2CCCN(C(=O)c3ccco3)CC2)cn1

[-23.9, -5.28, -4.4, 5.77, 3.36, 0.994, -25.5, -11.3]

Give one value of cytotoxicity at 10 µM per listed molecule.
1. CCn1cnnc1CNC(=O)N(C)Cc1cccc(Cl)c1Cl
2. CCn1ncc2c1CCCC2NCc1ccccc1N1CCOCC1 (stereo not drawn)
3. CCSCCC(=O)Nc1ncn(Cc2ccccc2)n1
4. COCC(=O)N[C@H]1C[C@@H](C(=O)NCCc2cccc(Cl)c2)N(C)C1

-16.2
-7.66
4.74
1.72

###

- Assay comment: Toxicity liver stage against HepG2, at 10uM
- Assay type: cell-based
- Design: test concentration 10 uM, cell line HepG2-A16-CD81EGFP
- Cond: human, HepG2-A16-CD81EGFP cells; read-out: INHIBITION
Attribute measured: cytotoxicity at 10 µM (%)
Answers are plain numbers, in %.

Record excerpt, results attached:
Molecule | Data value
O=C(NCC1CCOC1)c1cc(-c2ccc(Cl)cc2)n[nH]1 (configuration not stated) | -14
Cc1cc2ccccc2n1CCC(=O)N1CCCCC1CCO (configuration not stated) | 10.4
CCc1nnnn1Cc1csc(N(C)C(C)=O)n1 | 0.63
NC(=O)C1CCN(C(=O)CCn2ccc3cc(Br)ccc32)CC1 | -6.44
Cc1ccccc1OCCC(=O)N1CCCC(n2cncn2)C1 (configuration not stated) | -17.6
O=C(CN1CCOc2ccc(Cl)cc21)NCCCn1cccn1 | -0.174
CC(=O)c1cc(C(=O)N2CCC3(CC2)Nc2ccccc2NC3=O)cs1 | 3.54
Cn1cnc2c1CCN(Cc1csc(Cc3ccccc3)n1)C2 | -5.4
O=C(NCCCN1CCOCC1)c1cc(-c2ccccc2)[nH]n1 | -161
Cc1nn(C)cc1C1CC(=O)Nc2c1cnn2C(C)C (configuration not stated) | -4.31

For each entry beneath this line, provide reported cytotoxicity at 10 µM.
1. O=C1N[C@H]2OCCC[C@H]2[C@H](c2ccccc2C(=O)O)N1
2. CCS(=O)(=O)N1CCCC(n2nnn(-c3ccccc3)c2=O)C1 (configuration not stated)

1. 2.62
2. 2.65

###

- Assay comment: Toxicity liver stage against HepG2, at 10uM
- Format: cell-based
- Design: test concentration 10 uM, cell line HepG2-A16-CD81EGFP
- Cond: human, HepG2-A16-CD81EGFP cells; read-out: INHIBITION
Attribute measured: cytotoxicity at 10 µM (%)
Numbers only, in %.

Molecule | Units text | Data value
N#CC1(NC(=O)c2ccc(-c3nc(C4CC4)n[nH]3)cc2)CCC1 | % | 0.614
O=C(Cn1cc(I)cn1)NCC1CCC1 | % | 14.5
CCOc1ncnc2c1CCN(C(=O)c1cnccn1)CC2 | % | -6.13

Working through the 5 molecules below one at a time, give cytotoxicity at 10 µM for each.
1. COCC(=O)N1CCC(c2cccc(Cc3ccc(F)cc3)n2)CC1
2. O=C(NCc1ccncc1)c1ccc(Cl)cc1F
3. OC(COCc1cccs1)CSc1nnc2ccccn12 (stereo not drawn)
4. CCc1nnsc1C(=O)N1CCOC(c2nc(C)n[nH]2)C1 (stereo not drawn)
5. CCN(CC)C(=O)CN1CCC(c2nc(C)c3c(n2)N(C)CCC3)CC1

1. 10.3
2. 0.55
3. 1.66
4. -6.45
5. 4.14

Take each entry in turn and give its cytotoxicity at 10 µM.
1. O=C1CCCN1CCN1CCC(c2ccn[nH]2)CC1
2. COCC(C)NC(=O)c1cn(C(C)C)cc2c(=O)[nH]nc1-2 (stereo not drawn)
3. CCOC1COC2(CCN(S(=O)(=O)c3cccc(C)c3)CC2)C1 (stereo not drawn)
4. CCn1c(NCc2ccccn2)nc2c(C)nn(C)c2c1=O
5. CC(=O)N1CCc2c(nc(N(C)C)nc2N(C)CC2CCCO2)C1 (stereo not drawn)
6. O=C(c1cnc(-c2ccccn2)s1)N1CCCC(n2cccn2)C1 (stereo not drawn)

1. 11.3
2. -12.6
3. -79.8
4. 9.51
5. 1.9
6. -11.9

// for each molecule in input: emit cytotoxicity at 10 µM
1. CC(C)NC(=O)[C@@H]1CC[C@@H]2[C@@H](CCN2Cc2ccc3ccccc3n2)O1
2. COCC1COCCC12CCN(S(=O)(=O)c1ccccc1C)CC2 (stereo not drawn)
3. COCCN1CC2(CCC1=O)CCN(Cc1nnc(C)o1)CC2
4. COCCC(=O)N1CC2(CCN(Cc3ccncc3)CC2)C1
5. CCCn1nc2c(cc1=O)CN(Cc1cc(C)on1)CC2
6. CCc1csc(C2CCCN(C(=O)c3ccc4c(c3)OCO4)C2)n1 (stereo not drawn)
7. CC(=O)Nc1nc(C(=O)NC(C)c2ccc(F)cc2)cs1 (stereo not drawn)

[3.98, -5.42, -5.81, -66.6, -13.9, 1.71, -0.168]

Quick request: cytotoxicity at 10 µM for each listed item, please.
1. O=C1CN(Cc2nnc(-c3ccc(Br)cc3)o2)CCN1
2. Cc1cncc(C(=O)N2CCCC(O)(CO)C2)c1 (stereo not drawn)
3. CCc1noc(CN2CCN(C(=O)c3ccccc3F)CC2)n1
4. CC(C)c1nnc2sc(CC3CCS(=O)(=O)C3)nn12 (stereo not drawn)
5. CC1=N[C@@]2(CC[C@@H]3CN(S(=O)(=O)CC(C)C)C[C@@H]32)C(=O)N1CC1CC1
6. COc1c(C2CCCN2C(=O)c2cc(Cl)c[nH]2)c(C)nn1C (stereo not drawn)
7. CCc1cc(-c2cc[nH]n2)nc(N2CCOCC2)n1
8. Cc1cc(C(=O)N2CCN(C)CC2)nn1CC(=O)NCc1cccs1

[2.55, 2.09, -23.2, -6.48, -66.6, 4.6, 7.04, -5.83]

###

- Assay comment: Toxicity liver stage against HepG2, at 10uM
- Format: cell-based
- Set-up: test concentration 10 uM, cell line HepG2-A16-CD81EGFP
- Cond: human, HepG2-A16-CD81EGFP cells; read-out: INHIBITION
Attribute measured: cytotoxicity at 10 µM (%)
Give bare numbers, in %.

Below, 5 compounds whose answers are already recorded.
Compound | cytotoxicity at 10 µM (%)
CC(=O)c1c(F)cccc1NC1CCN(S(=O)(=O)C2CC2)CC1 | 12.5
NC(=O)CN1CCC(OCc2ccc(Cl)c(Cl)c2)CC1 | -0.497
CCc1cc(CN2CCCCC2c2ccc(F)cc2)on1 (stereo unspecified) | -2.45
O=C(NC1(C(=O)O)CCCCC1)C1Cc2ccccc2O1 (stereo unspecified) | 10.9
O=C1Cc2cc(NC(=O)N3CCCN(Cc4cccs4)CC3)ccc2N1 | 0.929

I have this compound here, `O=C(Nc1ccc(Br)cc1F)c1ccc(N2CCOCC2)nn1` , and I need its recorded cytotoxicity at 10 µM. 22.4
